tested on: HEp-2; experiment: Cytotoxicity against human Hep2 Cells; format: functional, cell-based
The following molecules are shown together with reported IC50 values.
Record the value in µM, omitting the unit from your answer.

Given CCN1C/C(=C\c2cc(OC)c(OC)c(OC)c2)C(=O)/C(=C/c2cc(OC)c(OC)c(OC)c2)C1 , state its recorded IC50. 16.6

Further cases:
Given COc1cc(/C=C/C(=O)CC(=O)/C=C/c2ccc(O)c(OC)c2)ccc1O [CURCUMIN] , state its recorded IC50. 21.4

* * *

assay: Cytotoxicity against human GBM6 Cells 48 hrs by MTS assay; type: functional; conditions: GBM6, 48 h
MEASURED PARAMETER: pIC50
Convention used: pIC50 is expressed as -log10 of the molar concentration.

Given C=CC(=O)NC(c1ccccc1)C(C(=O)/C=C/c1cccc(O)c1)C(=O)/C=C/c1cccc(O)c1 (configuration not stated) , state its recorded pIC50. 5.63

* * *

system: HeLa; experiment: Cytotoxicity against human HeLa Cells; format: functional, cell-based
The following molecules are shown together with reported pIC50 values.
Convention used: pIC50 is expressed as -log10 of the molar concentration.

Give pIC50 (HeLa) of the following molecule: COc1cccc2c1C(=O)c1c(O)c3c(c(O)c1C2=O)C[C@@](O)(C(=O)CO)C[C@@H]3O[C@H]1C[C@H](N)[C@H](O)[C@H](C)O1 5.69

Give pIC50 (HeLa) of the following molecule: COc1ccc(OC)c(/C=C/C(=O)/C=C/c2cc(OC)ccc2OC)c1 4.85

Now consider the entry below.
Give pIC50 (HeLa) of the following molecule: COc1cc(/C=C/C(=O)CC(=O)/C=C/c2ccc(OC3O[C@H](CO)[C@@H](O)[C@H](O)[C@H]3O)c(OC)c2)ccc1O (stereo not given in full) 4.90

* * *

test system: HepG2; assay: Cytotoxicity against human HepG2 Cells; assay type: functional, cell-based
MEASURED PARAMETER: pIC50
Convention used: pIC50 is expressed as -log10 of the molar concentration.

Examples with their reported pIC50 follow.
Given C/C(=C/C(=O)c1ccccc1)Nc1cccc(/C=C2\CN(C)C/C(=C\c3cccc(N/C(C)=C/C(=O)c4ccccc4)c3)C2=O)c1 , state its recorded pIC50. 5.26

Given COc1cc(/C=C/C(=O)CC(=O)/C=C/c2ccc(OC3O[C@H](CO)[C@@H](O)[C@H](O)[C@H]3O)c(OC)c2)ccc1O (some centres undefined) , state its recorded pIC50. 4.73

Given COc1cccc2c1C(=O)c1c(O)c3c(c(O)c1C2=O)C[C@@](O)(C(=O)CO)C[C@@H]3O[C@H]1C[C@H](N)[C@H](O)[C@H](C)O1 [DOXORUBICIN] , state its recorded pIC50. 6.24

Now consider the entry below.
Given COc1cc(/C=C/C(=O)CC(=O)/C=C/c2ccc(O)c(OC)c2)ccc1O [CURCUMIN] , state its recorded pIC50. 4.43

* * *

system: HeLa; test: Anticancer activity against human HeLa cells; format: functional, cell-based
MEASURED PARAMETER: IC50 (nM)
Record the value in nM, omitting the unit from your answer.

Given COc1cc(/C=C/C(=O)CC(=O)/C=C/c2ccc(O)c(OC)c2)ccc1O , state its recorded IC50. 4330

Given O=C(/C=C(O)/C=C/c1ccc(OCC(=O)NCC(=O)O)cc1)/C=C/c1ccc(OCC(=O)NCC(=O)O)cc1 , state its recorded IC50. 500

Further cases:
Given COc1cc(/C=C/C(=O)/C=C(O)/C=C/c2ccc(OCC(=O)NCC(=O)O)c(OC)c2)ccc1OCC(=O)NCC(=O)O , state its recorded IC50. 500

* * *

The following molecules are shown together with reported IC50 values.
tested on: PC-3; assay: Cytotoxicity against human PC3 cells by MTT assay; assay type: functional, cell-based
Record the value in µM, omitting the unit from your answer.

Given CN1CC(Cc2ccc(N(C)C)cc2[N+](=O)[O-])C(=NO)C(Cc2ccc(N(C)C)cc2[N+](=O)[O-])C1 (configuration not stated) , state its recorded IC50. 0.08

Now consider the entry below.
Given CCOC(OCC)c1ccc(CC2CN(C)CC(Cc3ccc(C(OCC)OCC)cc3)C2=NO)cc1 (configuration not stated) , state its recorded IC50. 0.2

* * *

The following compounds are shown together with reported pIC50 values.
system: HCT-116; assay: Antitumor activity against human HCT116 cells after 72 hrs by FMCA method; type: functional, cell-based; conditions: HCT-116, 72 h, pooled result: one value given for 5 cell lines, strains, targets or settings
Convention used: pIC50 is expressed as -log10 of the molar concentration.

Examples with their reported pIC50 follow.
Given CCCC(=O)Oc1ccc(/C=C2\CN(C(=O)c3ccccc3)C/C(=C\c3ccc(OC(=O)CCC)c(OCC)c3)C2=O)cc1OCC , state its recorded pIC50. 6.72

Given CCCOc1ccc(/C=C2\CN(C(=S)c3ccccc3)C/C(=C\c3ccc(OCCC)c(OC)c3)C2=O)cc1OC , state its recorded pIC50. 6.68

Now consider the entry below.
Given CCCC(=O)Oc1ccc(/C=C2\CN(C(C)=O)C/C(=C\c3ccc(OC(=O)CCC)c(OC)c3)C2=O)cc1OC , state its recorded pIC50. 6.61

* * *

assay: Antiproliferative activity against human K562/G01 cells; format: functional, cell-based
MEASURED PARAMETER: pIC50
Convention used: pIC50 is expressed as -log10 of the molar concentration.

Given COc1cc(/C=C/C(=O)C(=Cc2ccncc2)C(=O)/C=C/c2ccc(O)c(OC)c2)ccc1O , state its recorded pIC50. 6.22

* * *

assay: Cytotoxicity against human GBM4 Cells 48 hrs by MTS assay; type: functional
MEASURED PARAMETER: pIC50
Convention used: pIC50 is expressed as -log10 of the molar concentration.

Given C=CC(=O)NC(c1ccccc1)C(C(=O)/C=C/c1cccc(O)c1)C(=O)/C=C/c1cccc(O)c1 (configuration not stated) , state its recorded pIC50. 5.90

* * *

system: HT-29; experiment: Cytotoxicity against human HT-29 Cells; assay type: functional, cell-based
The following compounds are shown together with reported IC50 values.
Record the value in µM, omitting the unit from your answer.

Examples with their reported IC50 follow.
Given COc1cc(/C=C/C(=O)CC(=O)/C=C/c2ccc(OC3O[C@H](CO)[C@@H](O)[C@H](O)[C@H]3O)c(OC)c2)ccc1OC1O[C@H](CO)[C@@H](O)[C@H](O)[C@H]1O (some centres undefined) , state its recorded IC50. 41.6

Given O=C(/C=C(\O)c1ccccc1)c1ccccc1O [2',beta-DIHYDROXYCHALCONE] , state its recorded IC50. 7.5

Further cases:
Given COc1cc(/C=C2/C(=O)/C(=C/c3cc(OC)c(OC)c(OC)c3)c3ccccc32)cc(OC)c1OC , state its recorded IC50. 0.98

* * *

assay: Cytotoxicity against mitoxantrone resistant […] cells expressing BCRP after 15 mins by fluorescence assay; type: functional, cell-based; settings: Canis lupus familiaris, MDCK2, 0.25 h
MEASURED PARAMETER: IC50 (µM)
Record the value in µM, omitting the unit from your answer.

Given COc1cc(/C=C/C(=O)CC(=O)/C=C/c2ccc(O)c(OC)c2)ccc1O [CURCUMIN] , state its recorded IC50. 32

Given COc1cc(/C=C2\CNC/C(=C\c3ccc(O)c(OC)c3)C2=O)ccc1O , state its recorded IC50. 4.3

Given COc1cc(F)c(/C=C2\CNC/C(=C\c3cc(OC)c(OC)cc3F)C2=O)cc1OC , state its recorded IC50. 5.2

Now consider the entry below.
Given COc1ccc(OC)c(/C=C2\CNC/C(=C\c3cc(OC)ccc3OC)C2=O)c1 , state its recorded IC50. 1.2

* * *

target: Tyrosine-protein kinase ABL1 (Homo sapiens, UniProt P00519, T315I); experiment: Inhibition of ABL T315I mutant (unknown origin)
MEASURED PARAMETER: pIC50
Convention used: pIC50 is expressed as -log10 of the molar concentration.

Give pIC50 (Tyrosine-protein kinase ABL1 (Homo sapiens, UniProt P00519, T315I)) of the following compound: COc1cc(C=C(C(=O)/C=C/c2ccc(O)c(OC)c2)C(=O)/C=C/c2ccc(O)c(OC)c2)ccc1O 7.17
